Every entry's value here was drawn from PubChem BioAssay.

experiment: optical density shifts of acrAB sulA E. coli – strain DRC41, OD650, 48 h, E. coli filamentation inducer project, primary screen (AID 1152); details: higher = more signal, called active from +8 up or from −8 down;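 further: E. coli MC1000 strain DRC41 lacking acrAB efflux pump and sulA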
z-score reference
measurement.type: z-score

molecule | measurement.type | measured
CCCCCN1CC=CC23O[C@@H]4/C=C\CCCOC(=O)C4[C@H]2C(=O)N(C(C)CO)[C@@H]3C1=O (stereo partly specified) | z-score | 1.2
O=C(c1ccccc1)N1C(=O)[C@]2(Cc3ccccc31)N=C(c1ccc(OCCCO)cc1)O[C@@H]2c1ccccc1 | z-score | -0.857
C#Cc1cc2ccccc2oc1=O | z-score | -1.44
C=C[C@H]1C(C(=O)OCC)=CC[C@@H](c2ccccc2)N1S(=O)(=O)c1ccc(C)cc1 | z-score | -1.11
CC[C@@H]1C=C(C(=O)O)[C@H](c2ccccc2)N1S(=O)(=O)c1ccc(C)cc1 | z-score | -1.24
CC1=C2[C@@H](CCc3ccccc3)OB(O)C[C@@H]2[C@@H]2C(=O)N(C)C(=O)[C@@H]2C1 | z-score | -0.155
C=CCC(OC(C)=O)[C@@H]1[C@@H](N(Cc2cccc3ccccc23)C(=O)Cc2ccc(OC)cc2)c2cc(OCCCO)ccc2N1C(=O)c1ccc(-c2ccccc2)cc1 (stereo partly specified) | z-score | -0.62
CC(C)[Si]1(C(C)C)OCc2cc(-c3ccc(-c4ccc(Cl)c(Cl)c4)o3)nc(-c3ccccc3)c21 | z-score | -0.618
CC(C)[Si]1(C(C)C)OCc2cc(C3CC3)nc(-c3ccc(Oc4ccccc4)cc3)c21 | z-score | -0.367
CC(C)c1ccc(NN2C(C(O)c3ccc(F)cc3)C=CC3C(=O)N(c4ccccc4)C(=O)C32)cc1 (stereo unspecified) | z-score | -0.601
[N-]=[N+]=NCc1ccccc1C[C@@]1(C(N)=O)N=C(c2ccc(OCCCO)cc2)O[C@@H]1c1ccccc1 | z-score | -1.25

###

target: Luciferin 4-monooxygenase (Photinus pyralis) (UniProt P08659); experiment: inhibition of purified Photinus pyralis luciferase – biochemical, luminescence, purified enzyme, 2006 set, primary screen (AID 1141); conditions: purified firefly luciferase, SteadyGlo luminescence, 30 min; higher = more signal, called active from +8 up or from −8 down;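 further: cell-free assay with purified firefly luciferase at 100 ng per well in PBS; test concentration not given here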
Sequence (P08659 whole entry, looked up): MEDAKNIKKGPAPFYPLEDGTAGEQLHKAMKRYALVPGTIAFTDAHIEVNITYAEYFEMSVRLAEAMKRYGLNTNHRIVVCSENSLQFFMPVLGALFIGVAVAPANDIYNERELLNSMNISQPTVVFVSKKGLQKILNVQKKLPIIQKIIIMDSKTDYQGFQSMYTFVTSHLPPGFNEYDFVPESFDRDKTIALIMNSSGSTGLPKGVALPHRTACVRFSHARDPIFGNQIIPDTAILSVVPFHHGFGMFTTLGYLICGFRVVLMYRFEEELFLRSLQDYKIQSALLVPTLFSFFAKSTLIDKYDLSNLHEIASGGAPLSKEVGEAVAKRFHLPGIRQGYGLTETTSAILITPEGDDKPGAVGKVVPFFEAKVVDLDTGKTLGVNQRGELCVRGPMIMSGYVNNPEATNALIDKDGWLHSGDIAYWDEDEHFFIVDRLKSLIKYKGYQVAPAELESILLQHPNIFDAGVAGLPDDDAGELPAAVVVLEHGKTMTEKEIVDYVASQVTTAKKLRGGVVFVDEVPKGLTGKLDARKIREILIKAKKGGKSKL
Hi all, reminder that labels come from z-score, split as low group = under -1, middle group = from -1 up to 0.5, high group = 0.5 and over

compound | assayed.target | class.assignment
C=CCNC(=O)[C@@H]1[C@H]2C(=O)O[C@H](c3ccccc3)[C@H](c3ccccc3)N2[C@H](c2ccc(OCCO)cc2)[C@@]12C(=O)N(C(=O)OCCOC)c1ccc(C#Cc3ccc(OC)cc3)cc12 | Luciferin 4-monooxygenase (Photinus pyralis) (UniProt P08659) | middle group
Cc1ccc(N2C(=O)c3ccccc3[C@@H](C(=O)NCCCN(C)C)[C@@H]2c2ccc(CO)cc2)nc1 | Luciferin 4-monooxygenase (Photinus pyralis) (UniProt P08659) | high group
C=C[C@H](C)[C@H](OC(=O)Nc1ccc(SC)cc1)c1ccc(OCCO)cc1 | Luciferin 4-monooxygenase (Photinus pyralis) (UniProt P08659) | low group
COCCCNC(=O)[C@@]1(CCC(=O)OC(C)(C)C)N=C(c2ccc(OCCCO)cc2)O[C@H]1c1ccccc1N=[N+]=[N-] | Luciferin 4-monooxygenase (Photinus pyralis) (UniProt P08659) | low group
COC(=O)[C@]1(CCS(=O)(=O)c2ccccc2)N=C(c2ccc(OCCCO)cc2)O[C@@H]1c1ccccc1N=[N+]=[N-] | Luciferin 4-monooxygenase (Photinus pyralis) (UniProt P08659) | low group
NC(=O)NCC#Cc1ccc2c(c1)[C@]1(C(=O)N2)[C@H](c2ccccc2OCCO)N2[C@H](c3ccccc3)[C@H](c3ccccc3)OC(=O)[C@H]2[C@@H]1C(=O)NC[C@H](O)c1ccccc1 | Luciferin 4-monooxygenase (Photinus pyralis) (UniProt P08659) | high group
O=c1cccc(-c2ccc([N+](=O)[O-])cc2)o1 | Luciferin 4-monooxygenase (Photinus pyralis) (UniProt P08659) | high group
COCC(=C=CC[C@H](O)c1ccc(CO)o1)CCO | Luciferin 4-monooxygenase (Photinus pyralis) (UniProt P08659) | middle group
COc1cc(C(O)C2C=CC3C(=O)N(C)C(=O)C3N2Nc2ccccc2)cc(OC)c1OC (centres undefined) | Luciferin 4-monooxygenase (Photinus pyralis) (UniProt P08659) | low group
[N-]=[N+]=Nc1ccccc1C[C@@]1(C(=O)N2CCOCC2)N=C(c2ccc(OCCCO)cc2)O[C@@H]1c1ccccc1 | Luciferin 4-monooxygenase (Photinus pyralis) (UniProt P08659) | low group
Cc1ccc(C(C)CC(O)C2C=CC3C(=O)N(c4ccccc4)C(=O)C3N2Nc2ccccc2)o1 (centres undefined) | Luciferin 4-monooxygenase (Photinus pyralis) (UniProt P08659) | low group
O=C1C2C=CC(C(O)c3cccc(O)c3)N(Nc3ccc([N+](=O)[O-])cc3)C2C(=O)N1c1ccccc1 (centres undefined) | Luciferin 4-monooxygenase (Photinus pyralis) (UniProt P08659) | high group
O=C(NCCN1CCOCC1)[C@@H]1c2ccccc2C(=O)N(Cc2ccccc2Cl)[C@H]1c1ccc(CO)cc1 | Luciferin 4-monooxygenase (Photinus pyralis) (UniProt P08659) | high group
CC[C@@H]1C=C(C(=O)O)[C@H](c2ccc(C#N)cc2)N1S(=O)(=O)c1ccc(C)cc1 | Luciferin 4-monooxygenase (Photinus pyralis) (UniProt P08659) | high group
[N-]=[N+]=Nc1ccccc1C[C@@]1(C(=O)NCCN2CCOCC2)N=C(c2ccc(OCCCO)cc2)O[C@@H]1c1ccccc1N=[N+]=[N-] | Luciferin 4-monooxygenase (Photinus pyralis) (UniProt P08659) | low group
CS(=O)(=O)CCOC(=O)C1=CC(CCCO)=CC(c2ccc(CN3CCCC3)cc2)N(Cc2sc3ccccc3c2Cl)C=C1C(=O)OCCS(C)(=O)=O (centres undefined) | Luciferin 4-monooxygenase (Photinus pyralis) (UniProt P08659) | low group
C=CCC(OC(C)=O)[C@@H]1[C@@H](N(Cc2ccc(-c3cccc(C(F)(F)F)c3)o2)C(=O)Cc2ccc(OC)cc2)c2cc(OCCCO)ccc2N1C(=O)c1ccc(-c2ccccc2)cc1 (some centres undefined) | Luciferin 4-monooxygenase (Photinus pyralis) (UniProt P08659) | middle group
CCCC=C(CCC)[C@@H](NC(=O)C(C)(C)C)c1ccc(C(=O)OC)cc1 | Luciferin 4-monooxygenase (Photinus pyralis) (UniProt P08659) | high group
CCOC(=O)C[C@H]1[C@H](OC(=O)c2cc3ccccc3oc2=O)[C@@H](NC(=O)c2ccc3ccccc3n2)c2cc(OCCCO)ccc2N1C(=O)Cc1ccc(OC)cc1 | Luciferin 4-monooxygenase (Photinus pyralis) (UniProt P08659) | high group
COc1cccc(C)c1NC(=O)O[C@H]1[C@H](OC(=O)Nc2ccccc2-c2ccccc2)[C@H](OC(=O)Nc2ccccc2-c2ccccc2)[C@@H](OC)O[C@@H]1CO | Luciferin 4-monooxygenase (Photinus pyralis) (UniProt P08659) | middle group
C=CCC(OC(C)=O)[C@@H]1[C@@H](N(Cc2ccc(-c3cccc(C(F)(F)F)c3)o2)C(=O)c2ccc(-c3ccccc3)cc2)c2cc(OCCCO)ccc2N1C(=O)Cc1ccc2ccccc2c1 (some centres undefined) | Luciferin 4-monooxygenase (Photinus pyralis) (UniProt P08659) | middle group
COC(=O)c1c(CC[C@@H](CO)NC(=O)N2CCC[C@H]2Cn2cc(C3(O)CCCCC3)nn2)oc(C(C)=O)c1C(=O)OC | Luciferin 4-monooxygenase (Photinus pyralis) (UniProt P08659) | high group
COC(=O)[C@@]1(Cc2ccc(F)cc2)[C@H]2c3cc(C(=O)N4CCCC4)n(CCc4c[nH]c5ccccc45)c3C[C@H]2CN1C(=O)c1ccccc1 | Luciferin 4-monooxygenase (Photinus pyralis) (UniProt P08659) | high group
C=C(C(=O)CC[C@H](OC(=O)c1ccccc1-c1ccccc1C(=O)O)c1cccc(OCCO)c1)C(C)C | Luciferin 4-monooxygenase (Photinus pyralis) (UniProt P08659) | middle group
COc1ccc(C#Cc2ccc3c(c2)[C@]2(C(=O)N3)[C@H](c3ccc(OCCO)cc3)N3[C@H](c4ccccc4)[C@H](c4ccccc4)OC(=O)[C@H]3[C@@H]2C(=O)NC[C@H](O)c2ccccc2)cc1 | Luciferin 4-monooxygenase (Photinus pyralis) (UniProt P08659) | middle group
COC(=O)[C@@]1(Cc2ccc(F)cc2)[C@H]2c3cc(C(=O)N(C)C)n(CCc4ccc(OC)c(Br)c4)c3C[C@H]2CN1C(=O)c1ccccc1 | Luciferin 4-monooxygenase (Photinus pyralis) (UniProt P08659) | middle group
CN1C2C=C(CCCO)C(C3C(=O)N(C(N)=O)C(=O)C32)C1C1CC1 (centres undefined) | Luciferin 4-monooxygenase (Photinus pyralis) (UniProt P08659) | middle group
[N-]=[N+]=Nc1ccccc1[C@H]1OC(c2ccc(OCCCO)cc2)=N[C@@]1(Cc1ccccc1)C(=O)NCCN1CCOCC1 | Luciferin 4-monooxygenase (Photinus pyralis) (UniProt P08659) | low group
